- assay.explanation: AUC (0 to 72 hrs) in Wistar rat Heart at 10 mg/kg, po by HPLC analysis
- Type: ADME, organism-based
- Parameters: time < 72 hr, dose 10 mg/kg, route oral
measured.quantity: AUC(0-t) at 72 h (ng·h/mL)
Answers are plain numbers, in ng·h/mL.

**Q:** Any idea what AUC(0-t) at 72 h was measured for `CCCCC1=NC2(CCCC2)C(=O)N1Cc1ccc2c(ccn2-c2ccccc2-c2nnn[nH]2)c1` ?
**A:** 825

###

- assay.explanation: AUC (0 to infinity) in Wistar rat liver at 15 mg/kg, po by HPLC analysis
- Assay type: ADME, organism-based
- Parameters: dose 15 mg/kg, route oral, time infinity
measured.quantity: AUC(0-inf) (ng·h/mL)
Give bare numbers, in ng·h/mL.

**Q:** If you can, please state the reported AUC(0-inf) value of `CCCCC1=NC2(CCCC2)C(=O)N1Cc1ccc2c(ccn2-c2ccccc2-c2nnn[nH]2)c1` .
**A:** 23500
